Entry source: paper PMC5706701

Biological target: Human IP6K1 (Homo sapiens, UniProt Q92551)
Construct: GST (N, cleaved yes); made in house; host or cells: C43 E. coli, pGEX-6P-2
Sequence (Q92551 whole entry): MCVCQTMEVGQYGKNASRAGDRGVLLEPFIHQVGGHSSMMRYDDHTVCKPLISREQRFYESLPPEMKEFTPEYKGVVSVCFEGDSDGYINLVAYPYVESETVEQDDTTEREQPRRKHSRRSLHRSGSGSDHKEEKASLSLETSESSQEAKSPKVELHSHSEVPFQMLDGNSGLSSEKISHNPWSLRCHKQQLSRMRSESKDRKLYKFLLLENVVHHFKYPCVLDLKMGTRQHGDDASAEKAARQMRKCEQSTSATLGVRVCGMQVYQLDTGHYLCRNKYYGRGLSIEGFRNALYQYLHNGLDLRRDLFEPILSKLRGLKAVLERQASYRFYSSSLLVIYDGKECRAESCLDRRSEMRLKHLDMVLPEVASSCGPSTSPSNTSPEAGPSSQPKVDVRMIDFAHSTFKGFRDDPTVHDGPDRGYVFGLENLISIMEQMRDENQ
Experiment: IP6K1 high-throughput screen of the Sigma LOPAC (ADP-Glo Max, single point);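 also: final compound concentration 10µM in 5% DMSO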
Type: biochemical
Conditions: LOPAC single-point screen; Z-score from raw signal with plate average and StDev
Structures can show the parent of a compound that is named as a salt.
I'd appreciate it if you could label each record using Z-score and these ranges: L = under -0.4, M = from -0.4 up to -0.2, H = -0.2 and over

Prompt: Lab log: Cc1ccc(N(CC2=NCCN2)c2cccc(O)c2)cc1 [Phentolamine mesylate] — assign Z-score category
Response: M

Prompt: Form field 'band' for CO/N=C(\C(=O)N[C@@H]1C(=O)N2C(C(=O)O)=C(CSc3nc(=O)c(=O)[nH]n3C)CS[C@H]12)c1csc(N)n1 [Ceftriaxone sodium]
Response: M

Prompt: # bin lookup: classify "N[C@@H](CCC(=O)N[C@@H](CSN=O)C(=O)NCC(=O)O)C(=O)O" by its Z-score
Response: H

Prompt: Determine which band this compound sits in: CC(C)(C)c1o[nH]c(=O)c1CC(N)C(=O)O (stereo not shown)
Response: H

Prompt: Which Z-score band matches "CCCCC1C(=O)N(c2ccccc2)N(c2ccccc2)C1=O" ?
Response: M

Prompt: Band for "Cc1cc(NC(=O)Nc2ccc3c(ccn3C)c2)sn1" ?
Response: M

Prompt: Category lookup for the compound COc1cc2c(cc1OC)-c1c/c(=N\c3c(C)cc(C)cc3C)n(C)c(=O)n1CC2 [Trequinsin hydrochloride]
Response: M

Prompt: Where would CP(=O)(O)CCCN.Cl [SKF 97541 hydrochloride] land among the classes by reported Z-score?
Response: H

Prompt: Class for "O=C(O)CC[N+](=O)[O-]" ?
Response: M

Prompt: Pick a category. Item: "CCn1c(=O)c2nc(-c3ccccc3)[nH]c2n(CC)c1=O"
Response: H

Prompt: GET /class?item= Nc1c2c(nc3ccccc13)CCCC2O.O=C(O)/C=C\C(=O)O (stereo not shown) [Hydroxytacrine maleate]
Response: L

Prompt: Input "CC(C)C(=O)c1c(C(C)C)nn2ccccc12" ; output its category
Response: M

Prompt: Any idea which band COC(=O)C1=CCCN(C)C1 [Arecoline hydrobromide] is in?
Response: H

###

Biological target: Human IP6K1 (Homo sapiens, UniProt Q92551)
Construct: GST (N, cleaved yes); made in house; host or cells: C43 E. coli, pGEX-6P-2
Assay: IP6K1 high-throughput screen of the Sigma LOPAC (ADP-Glo Max, single point);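 also: final compound concentration 10µM in 5% DMSO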
Type: biochemical
Conditions: LOPAC single-point screen, ADP-Glo Max raw signal per well
Counter-ions that a name gives are not always drawn.
observable: Raw Signal
Kindly provide the number alone.

Here are 3 compounds together with their reported answers.
[
  {
    "compound": "N[C@@H]1CON=C1O [D-Cycloserine]",
    "assay.target": "Human IP6K1 (Homo sapiens, UniProt Q92551)",
    "Raw Signal": 55913
  },
  {
    "compound": "C[C@](N)(Cc1ccc(O)cc1)C(=O)O [L-alpha-Methyl-p-tyrosine]",
    "assay.target": "Human IP6K1 (Homo sapiens, UniProt Q92551)",
    "Raw Signal": 53929
  },
  {
    "compound": "Br.CCCN(CCC)C1CCc2ccc(O)cc2C1 (racemic) [(±)-7-Hydroxy-DPAT hydrobromide]",
    "assay.target": "Human IP6K1 (Homo sapiens, UniProt Q92551)",
    "Raw Signal": 55055
  }
]

Prompt: Please give measured Raw Signal of the following entry: CC(C)(C=O)Cc1cc(C(C)(C)C)c(O)c(C(C)(C)C)c1 [CGP-13501]
Response: 59120

Prompt: Given Nc1ccc(S(=O)(=O)Nc2ccnn2-c2ccccc2)cc1 [Sulfaphenazole] , respond with its Raw Signal.
Response: 54328

Prompt: Indicate its recorded Raw Signal; the compound in question is CCOC(=O)C1=C(C)NC(=S)NC1c1cccc(O)c1 (stereo not drawn) [Monastrol]
Response: 54262

Prompt: Please list Raw Signal recorded for the compound N=C(N)c1ccc(OCCCCCOc2ccc(C(=N)N)cc2)cc1 [Pentamidine isethionate]
Response: 54696

Prompt: Supply recorded Raw Signal for CC(C)NC(C)Cc1ccc(I)cc1 (stereo not drawn) [Iofetamine hydrochloride] here.
Response: 55439

Prompt: Retrieve Raw Signal measured for "CSc1nc(N)c2ncn([C@@H]3O[C@H](COP(=O)(O)OP(=O)(O)O)[C@@H](O)[C@H]3O)c2n1.[Na].[Na].[Na]" and print it.
Response: 54295
